Listed here are sequences together with their documented INF-γ production.
Test system: human peripheral blood mononuclear cells (PBMC)
TEST METHOD NOTES: CTL induction by peptide from PBMC of HLA-A2-positive cancer patients and healthy individuals, IFN-γ against peptide-pulsed T2 cells (Example 6)
Assay type: cell-based
RECORDED CONDITIONS: PBMC of stomach cancer patient 9; peptide-pulsed T2 cells
Form entry: value (pg/mL) — number only.

POLYMER SEQUENCE	UNIT OF MEASURE	INF-γ production
LMLQNALTIM (LMLQNALTTM; Designed peptide having an ability to activate HLA-A2 restricted Cytotoxic T lymphocytes) [Peptide P30, Gene 7 1359-1368]	pg/mL	92

Let us move to another entry and its INF-γ production.
Query: Return the recorded INF-γ production value; entry: LLRRADFHV (Designed peptide having an ability to activate HLA-A2 restricted Cytotoxic T lymphocytes) [Peptide P26, Gene 7 1296-1304]
Result: 8

====

Tested on: human peripheral blood mononuclear cells (PBMC)
TEST METHOD NOTES: CTL induction by peptide from PBMC of HLA-A2-positive cancer patients and healthy individuals, IFN-γ against peptide-pulsed T2 cells (Example 6)
Format: cell-based
RECORDED CONDITIONS: PBMC of healthy individual HD5; peptide-pulsed T2 cells
RECORDED METRIC: INF-γ production (pg/mL)
Your answer is read as pg/mL, so omit the unit and give the number.

Solved entries:
POLYMER SEQUENCE	INF-γ production [pg/mL]
DMWTVIAPV (Designed peptide having an ability to activate HLA-A2 restricted Cytotoxic T lymphocytes) [Peptide P22, CPSF 534-542]	0
QLGQGNLKV [Peptide P23]	83

Query: State measured INF-γ production of the sequence LMLQNALTIM (LMLQNALTTM; Designed peptide having an ability to activate HLA-A2 restricted Cytotoxic T lymphocytes) [Peptide P30, Gene 7 1359-1368] with human peripheral blood mononuclear cells (PBMC).
Result: 0

====

Test system: human peripheral blood mononuclear cells (PBMC)
TEST METHOD NOTES: CTL induction by peptide from PBMC of HLA-A2-positive cancer patients and healthy individuals, IFN-γ against peptide-pulsed T2 cells (Example 6)
Format: cell-based
RECORDED CONDITIONS: PBMC of healthy individual HD2; peptide-pulsed T2 cells
Reported values of INF-γ production for individual entries
Give just the number in pg/mL; leave the unit off.

POLYMER SEQUENCE	RECORDED VALUE
TQLATYSFEV (Designed peptide having an ability to activate HLA-A2 restricted Cytotoxic T lymphocytes) [Peptide P32, CPSF 456-465]	0

Query: // fetch INF-γ production given entry LMLQNALTIM (LMLQNALTTM; Designed peptide having an ability to activate HLA-A2 restricted Cytotoxic T lymphocytes) [Peptide P30, Gene 7 1359-1368]
Result: 0

Query: State its INF-γ production for this sequence: KVHPVIWSL [Peptide P21]
Result: 0

====

System: peripheral blood mononuclear cells derived from a cancer patient
TEST METHOD NOTES: CTL induction by peptide from autologous PBMC of cancer patient, IFN-γ production on recognition of target cells (Example 5)
Format: cell-based, human
RECORDED CONDITIONS: target Panc-1 (HLA-A0201/11); PBMC stimulated with 10 μM peptide
RECORDED METRIC: IFN-γ production from peripheral blood mononuclear cells in recognition of target cells (pg/mL)
Give a bare numeral; the unit pg/mL is implied.

POLYMER SEQUENCE	MEASUREMENT TARGET	RECORDED VALUE
FMFGQKLNV (Designed peptide having an ability to activate HLA-A2 restricted Cytotoxic T lymphocytes) [Peptide P8, Gene 2 (HNRPL) 443-451]	peripheral blood mononuclear cells derived from a cancer patient	186

Here's the next entry for you.
Query: Write down IFN-γ production from peripheral blood mononuclear cells in recognition of target cells measured for item NVLHFFNAPL (Designed peptide having an ability to activate HLA-A2 restricted Cytotoxic T lymphocytes) [Peptide P9, Gene 2 (HNRPL) 501-510]
Result: 339

====

System: peripheral blood mononuclear cells derived from a cancer patient
Format: cell-based, human
Peptide text beside a SMILES is read from it.
RECORDED METRIC: Cytotoxicity of peptide-stimulated PBMC to the autologous EBV-B cells

COMPOUND	RECORDED VALUE
CC[C@H](C)[C@H](NC(=O)[C@@H](NC(=O)[C@@H](N)CCCNC(=N)N)[C@@H](C)CC)C(=O)N[C@@H](Cc1ccc(O)cc1)C(=O)N[C@@H](CC(=O)O)C(=O)N[C@@H](CCCNC(=N)N)C(=O)N[C@@H](CCCCN)C(=O)N[C@@H](Cc1ccccc1)C(=O)N[C@@H](CC(C)C)C(=O)O [Peptide P14] (H-RIIYDRKFL-OH)	showed cytotoxicity
CC(C)C[C@H](NC(=O)CN)C(=O)N[C@@H](CC(C)C)C(=O)N[C@@H](Cc1ccccc1)C(=O)N[C@@H](CC(C)C)C(=O)N[C@@H](Cc1c[nH]cn1)C(=O)N[C@H](C(=O)N[C@@H](CCCNC(=N)N)C(=O)N[C@H](C(=O)O)[C@@H](C)O)[C@@H](C)O [Peptide P17] (H-GLLFLHTRT-OH)	showed cytotoxicity
CC[C@H](C)[C@H](N)C(=O)N[C@H](C(=O)N[C@@H](Cc1ccc(O)cc1)C(=O)N[C@@H](CC(=O)O)C(=O)N[C@@H](CCCNC(=N)N)C(=O)N[C@@H](CCCCN)C(=O)N[C@@H](Cc1ccccc1)C(=O)N[C@@H](CC(C)C)C(=O)N[C@@H](CCSC)C(=O)O)[C@@H](C)CC [Peptide P15] (H-IIYDRKFLM-OH)	showed cytotoxicity

====

System: OK-CTLp or OK-CTL clone
TEST METHOD NOTES: Recognition of peptide-pulsed T2 cells by OK-CTLp or OK-CTL clone (IFN-γ ELISA)
Assay type: cell-based, human
RECORDED CONDITIONS: concentration of peptide 0.1 μM
Threshold rule: IFN-γ production greater than or equal to 300 pg/mL is y; below that, n.

Query: Is IFN-γ production at least 300 pg/mL? Consider TMLPHHAGL [Peptide P25]
Result: n

Query: Reported IFN-γ production at or above 300 pg/mL? LMLQNALTIM (LMLQNALTTM; Designed peptide having an ability to activate HLA-A2 restricted Cytotoxic T lymphocytes) [Peptide P30, Gene 7 1359-1368]
Result: n

Query: Exam item: decide whether the reported IFN-γ production for SLLYLNQSV [Peptide P20] is at least 300 pg/mL.
Result: y

Query: Quick check: does LLLKYTEKL [Peptide P24] have IFN-γ production greater than or equal to 300 pg/mL?
Result: y

====

System: OK-CTLp or OK-CTL clone
TEST METHOD NOTES: Recognition of peptide-pulsed T2 cells by OK-CTLp or OK-CTL clone (IFN-γ ELISA)
Assay type: cell-based, human
RECORDED CONDITIONS: concentration of peptide 0.1 μM
RECORDED METRIC: IFN-γ production (pg/mL)
Just the number please, in pg/mL, no unit attached.

Study these solved cases before continuing.
POLYMER SEQUENCE	MEASUREMENT TARGET	IFN-γ production, pg/mL
ELLNRYLYL [Peptide P27]	OK-CTLp or OK-CTL clone	352
YQLPDWRLV [Peptide P29]	OK-CTLp or OK-CTL clone	0
DMWTVIAPV (Designed peptide having an ability to activate HLA-A2 restricted Cytotoxic T lymphocytes) [Peptide P22, CPSF 534-542]	OK-CTLp or OK-CTL clone	254

Kindly review the next sequence as well.
Query: Item QLGQGNLKV [Peptide P23] : provide IFN-γ production
Result: 6360
